test system: CYP3A4/5; assay: Reversible CYP inhibition in human liver microsomes; conditions: human, human liver microsomes, pH 7.4, probe testosterone (tst), Percent of Control Activity, CYP 3A4/5 (tst), 0.1 µM, Zero-Minute Preincubation

# test.smiles, activity at 0.1 µM
rows = [
    ("COc1cccc2[nH]c(C(=O)N[C@@H](CC(C)C)C(=O)N[C@@H](C[C@@H]3CCNC3=O)C(=O)CO)cc12", "88.6%"),
]

----------
experiment: Rat 24-h continuous intravenous infusion GLP toxicity study; format: in vivo, Sprague-Dawley rats; details: both sexes, Sprague-Dawley, in vivo, 24 h continuous IV infusion, read-out: no observed adverse effect level (NOAEL)

# test.smiles, NOAEL at 24 h
records = [
    ("COc1cccc2[nH]c(C(=O)N[C@@H](CC(C)C)C(=O)N[C@@H](C[C@@H]3CCNC3=O)C(=O)COP(=O)(O)O)cc12", "1000 mg/kg"),
]

----------
tested on: CYP3A; assay: Enzyme kinetics of metabolite formation in HLM and effect of CYP3A inhibitor ketoconazole; conditions: human, pooled human liver microsomes, pH 7.5

# molecule, microsomal CLint, µL/min/mg
data = [
    ("COc1cccc2[nH]c(C(=O)N[C@@H](CC(C)C)C(=O)N[C@@H](C[C@@H]3CCNC3=O)C(=O)CO)cc12 [PF-00835231]", 4.2),
]

----------
target: CYP2D6 (Homo sapiens, UniProt P10635); experiment: Reversible CYP inhibition in human liver microsomes; details: human, microsomes, pH 7.4, Percent of Control Activity, CYP 2D6, 0.1 µM, 30-Minute Preincubation
Sequence (P10635 whole entry): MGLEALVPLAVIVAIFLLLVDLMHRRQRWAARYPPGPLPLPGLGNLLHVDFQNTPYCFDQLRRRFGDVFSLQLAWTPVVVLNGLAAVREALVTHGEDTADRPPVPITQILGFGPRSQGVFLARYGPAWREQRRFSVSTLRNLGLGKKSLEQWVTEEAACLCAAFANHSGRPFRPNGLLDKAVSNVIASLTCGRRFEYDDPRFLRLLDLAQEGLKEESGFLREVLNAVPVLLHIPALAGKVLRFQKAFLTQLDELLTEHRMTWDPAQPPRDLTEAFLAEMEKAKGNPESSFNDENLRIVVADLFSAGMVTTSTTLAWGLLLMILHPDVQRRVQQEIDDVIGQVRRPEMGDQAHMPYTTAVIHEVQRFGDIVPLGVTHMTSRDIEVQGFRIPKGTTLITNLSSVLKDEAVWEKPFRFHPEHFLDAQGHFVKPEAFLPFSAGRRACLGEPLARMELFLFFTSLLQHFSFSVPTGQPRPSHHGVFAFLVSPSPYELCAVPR
metric: activity at 0.1 µM (%)

# test.smiles, metric, measurement.unit, observed
rows = [
    ("COc1cccc2[nH]c(C(=O)N[C@@H](CC(C)C)C(=O)N[C@@H](C[C@@H]3CCNC3=O)C(=O)CO)cc12", "activity at 0.1 µM", "%", 103),
]

----------
target: CYP1A2 (Homo sapiens); experiment: Reversible CYP inhibition in human liver microsomes; details: human, microsomes, pH 7.4, Percent of Control Activity, CYP 1A2, 0.214 µM, Zero-Minute Preincubation
Sequence (P05177 whole entry): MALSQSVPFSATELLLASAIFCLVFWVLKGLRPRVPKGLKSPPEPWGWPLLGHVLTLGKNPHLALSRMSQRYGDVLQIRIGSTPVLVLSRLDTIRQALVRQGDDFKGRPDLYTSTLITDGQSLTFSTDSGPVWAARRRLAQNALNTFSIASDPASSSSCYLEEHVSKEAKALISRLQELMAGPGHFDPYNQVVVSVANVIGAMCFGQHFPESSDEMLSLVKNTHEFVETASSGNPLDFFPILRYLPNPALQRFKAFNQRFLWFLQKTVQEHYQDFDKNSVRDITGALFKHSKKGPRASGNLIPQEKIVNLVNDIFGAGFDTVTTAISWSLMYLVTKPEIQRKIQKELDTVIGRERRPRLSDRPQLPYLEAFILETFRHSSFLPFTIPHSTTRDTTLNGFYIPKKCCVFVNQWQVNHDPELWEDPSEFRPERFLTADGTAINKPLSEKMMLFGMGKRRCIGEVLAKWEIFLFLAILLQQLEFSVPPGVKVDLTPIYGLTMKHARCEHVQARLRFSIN
metric: activity at 0.214 µM (%)

# compound, observed
rows = [
    ("COc1cccc2[nH]c(C(=O)N[C@@H](CC(C)C)C(=O)N[C@@H](C[C@@H]3CCNC3=O)C(=O)CO)cc12 [PF-00835231]", 98.4),
]

----------
test: Plasma protein binding by equilibrium dialysis; conditions: Wistar Hannover, rat, plasma, pH 7.4, fraction unbound Geomean, rat plasma, 5.0 uM, n=12
metric: fraction unbound at 6 h, 5 uM

# test.smiles, observed
records = [
    ("COc1cccc2[nH]c(C(=O)N[C@@H](CC(C)C)C(=O)N[C@@H](C[C@@H]3CCNC3=O)C(=O)CO)cc12", 0.327),
]

----------
assay: Dog pharmacokinetic study; conditions: male, Beagle, dog, plasma, iv, […], Clearance, Mean Data, PF-07304814 prodrug dosed […] intravenous, mean
metric: clearance (mL/min/kg)

# compound, measurement.unit, observed
rows = [
    ("COc1cccc2[nH]c(C(=O)N[C@@H](CC(C)C)C(=O)N[C@@H](C[C@@H]3CCNC3=O)C(=O)COP(=O)(O)O)cc12 [PF-07304814]", "mL/min/kg", 517),
]
